- ASSAY_METHOD_TEXT: Mean plasma clearance in wistar rats after intravenous administration of the compound at a dose of 1 and 3 mg/kg
- Type: ADME, organism-based
- Parameters: dose 3 mg/kg, route intravenous
- CONDITION_SUMMARY: rat
REPORTED_METRIC: clearance (mL/min/kg)
All answers are understood in mL/min/kg, so give the number only.

**Query** Dear colleague, please send me the reported clearance for O=C(NC[C@H]1CN(c2ccc(N3CCOCC3=O)cc2)C(=O)O1)c1ccc(Cl)s1 [RIVAROXABAN] when you can.
**Result** 6.67

* * *

- ASSAY_METHOD_TEXT: Mean half-life after intravenous administration to rats at a dose of 1 and 3 mg/kg
- Type: ADME, organism-based
- Parameters: dose 3 mg/kg, route intravenous
- CONDITION_SUMMARY: rat, in vivo
REPORTED_METRIC: half-life (min)
All answers are understood in min, so give the number only.

**Query** Dear colleague, please send me the reported half-life for O=C(NC[C@H]1CN(c2ccc(N3CCOCC3=O)cc2)C(=O)O1)c1ccc(Cl)s1 when you can.
**Result** 54

Where do these numbers come from? They come from ChEMBL document CHEMBL1140410.
